Biological target: ArnT (undecaprenyl phosphate-alpha-4-amino-4-deoxy-L-arabinose arabinosyl transferase) (Pseudomonas aeruginosa, UniProt Q02R27)
Sequence (Q02R27 1-549): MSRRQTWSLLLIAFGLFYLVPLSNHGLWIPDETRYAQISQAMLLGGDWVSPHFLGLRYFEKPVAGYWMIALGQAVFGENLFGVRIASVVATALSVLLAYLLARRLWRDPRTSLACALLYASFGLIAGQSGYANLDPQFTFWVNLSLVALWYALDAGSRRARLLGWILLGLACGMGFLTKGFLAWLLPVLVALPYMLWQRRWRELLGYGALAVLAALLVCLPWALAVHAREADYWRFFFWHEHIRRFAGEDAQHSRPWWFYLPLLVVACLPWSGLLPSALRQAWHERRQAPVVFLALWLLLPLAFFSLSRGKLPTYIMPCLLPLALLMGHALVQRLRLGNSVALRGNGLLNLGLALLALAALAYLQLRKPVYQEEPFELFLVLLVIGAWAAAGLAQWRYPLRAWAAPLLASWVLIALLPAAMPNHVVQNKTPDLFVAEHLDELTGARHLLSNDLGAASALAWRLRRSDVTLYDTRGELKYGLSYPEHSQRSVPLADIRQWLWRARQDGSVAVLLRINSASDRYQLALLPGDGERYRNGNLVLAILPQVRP
Test: intrinsic tryptophan fluorescence quenching titration, one-site binding fit
OBSERVABLE: Kd

### Prompt Look at this compound and give its reported Kd. C[C@@]12CC[C@@H]3[C@@](CC[C@@H]4[C@@](C)(COC(=O)C(=O)O)CCC[C@]43C)(CC1)C2 [FDO-H]
### Response ~10 µM
